SUBJECT_OF_TEST: human recombinant HDAC1 (Homo sapiens, UniProt Q13547)
Construct: purchased Enzo Life Science, Inc. BML-SE456
Sequence (Q13547 whole entry): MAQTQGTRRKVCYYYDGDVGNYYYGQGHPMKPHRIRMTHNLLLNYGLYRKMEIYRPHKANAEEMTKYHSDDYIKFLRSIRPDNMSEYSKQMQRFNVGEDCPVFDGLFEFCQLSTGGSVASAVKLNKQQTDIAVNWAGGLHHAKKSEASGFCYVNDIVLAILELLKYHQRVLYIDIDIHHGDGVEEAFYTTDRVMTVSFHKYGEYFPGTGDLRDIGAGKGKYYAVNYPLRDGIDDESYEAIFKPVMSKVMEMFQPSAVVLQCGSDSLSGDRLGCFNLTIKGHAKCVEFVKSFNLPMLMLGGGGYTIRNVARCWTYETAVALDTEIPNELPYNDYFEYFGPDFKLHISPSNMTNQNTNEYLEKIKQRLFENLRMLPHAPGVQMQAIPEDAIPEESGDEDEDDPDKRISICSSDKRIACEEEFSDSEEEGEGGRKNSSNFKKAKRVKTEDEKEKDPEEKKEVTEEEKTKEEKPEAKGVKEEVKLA
PROCEDURE_SUMMARY: HDAC1 enzyme activity inhibition (HDAC Fluorimetric Drug Discovery Kit)
Assay type: biochemical
EXPERIMENTAL_PARAMETERS: human recombinant HDAC1; IC50 calculated with GraphPad Prism; read-out: HDAC1
pIC50: −log10 of the molar value.
EXPERIMENTAL_READOUT: pIC50

Fc1cc(-c2nnc(C(F)F)o2)ccc1Cn1cc(-c2cccc(N3C[C@@H]4C[C@H]3CN4C3CCC3)c2)nn1 [Compound 4319]	< 4.30
Fc1cc(-c2nnc(C(F)F)o2)ccc1Cn1cc(-c2ccc(F)c(N3CCN(C4CCC4)CC3)c2)nn1 [Compound 4426]	< 4.30
CN(C)CCN(C)C(=O)c1cccc(-c2cn(Cc3ccc(-c4nnc(C(F)F)o4)cn3)nn2)c1 [Compound 4449]	< 4.30
FC(F)c1nnc(-c2ccc(Cn3cc(-c4ccccc4-n4cncn4)nn3)nc2)o1 [Compound 4286]	< 4.30
CCC(=O)N1CCN(c2cccc(-c3cn(Cc4ccc(-c5nnc(C(F)F)o5)cc4F)nn3)c2)CC1 [Compound 4377]	< 4.30
O=C(CO)N1CCC(c2cn(Cc3ccc(-c4nnc(C(F)F)o4)cn3)nn2)CC1 [Compound 3813]	< 4.30
O=C(O)c1cccc(-c2cn(Cc3ccc(-c4nnc(C(F)F)o4)cn3)nn2)c1 [Compound 3739]	< 4.30
CC(C)N1CCN(Cc2ccc(-c3cn(Cc4ccc(-c5nnc(C(F)F)o5)cc4F)nn3)cc2)CC1 [Compound 4475]	< 4.30
Fc1cc(-c2nnc(C(F)F)o2)ccc1Cn1cc(C2(F)COC2)nn1 [Compound 4282]	< 4.30
FC(F)c1nnc(-c2ccc(Cn3cc(-c4ccc5[nH]cc(CN6CCOCC6)c5c4)nn3)cc2)o1 [Compound 4186]	< 4.30
CC(C)N1CCN(Cc2cccc(-c3cn(Cc4ccc(-c5nnc(C(F)F)o5)cc4)nn3)c2)CC1 [Compound 4416]	< 4.30
Cc1ccc(-c2cn(Cc3ccc(-c4nnc(C(F)F)o4)cn3)nn2)cc1 [Compound 3738]	< 4.30
FC(F)c1nnc(-c2ccc(Cn3cc(-c4ccco4)nn3)nc2)o1 [Compound 3861]	< 4.30
FC(F)c1nnc(-c2ccc(Cn3cc(-c4ccncc4)nn3)nc2)o1 [Compound 3837]	< 4.30
CCCCN1CC(c2cn(Cc3ccc(-c4nnc(C(F)F)o4)cn3)nn2)C1 [Compound 3953]	< 4.30
FC(F)c1nnc(-c2ccc(Cn3cc(C4CN(C5COC5)C4)nn3)nc2)o1 [Compound 3955]	< 4.30
CCC(=O)N1CCN(c2cccc(-c3cn(Cc4ccc(-c5nnc(C(F)F)o5)cn4)nn3)c2)CC1 [Compound 3991]	< 4.30
FC(F)c1nnc(-c2ccc(Cn3cc(-c4cc(C(F)(F)F)cc(C(F)(F)F)c4)nn3)cc2)o1 [Compound 3695]	< 4.30
CC(=O)N1CCC[C@H]1c1cn(Cc2ccc(-c3nnc(C(F)F)o3)cn2)nn1 [Compound 4029]	< 4.30
CC(C)(C)OC(=O)Nc1cccc(-c2cn(Cc3ccc(-c4nnc(C(F)F)o4)cc3)nn2)c1 [Compound 3698]	< 4.30
CN1CCC(c2cccc(-c3cn(Cc4ccc(-c5nnc(C(F)F)o5)cc4F)nn3)c2)CC1 [Compound 4290]	< 4.30
Fc1cc(-c2nnc(C(F)F)o2)ccc1Cn1cc(-c2ccc3[nH]ccc3c2)nn1 [Compound 4135]	< 4.30
Fc1cc(-c2nnc(C(F)F)o2)ccc1Cn1cc(-c2cccc3[nH]ccc23)nn1 [Compound 4079]	< 4.30
FC(F)c1nnc(-c2ccc(Cn3cc(-c4cccc(N5CCOCC5)c4)nn3)nc2)o1 [Compound 3866]	< 4.30
FC(F)c1nnc(-c2ccc(Cn3cc(-c4ccc5c(c4)CCN(C4CCC4)C5)nn3)nc2)o1 [Compound 4054]	< 4.30
CC(C)N1CCC(c2cccc(-c3cn(Cc4ccc(-c5nnc(C(F)F)o5)cn4)nn3)c2)CC1 [Compound 4012]	< 4.30
Fc1ccc(-c2cn(Cc3ccc(-c4nnc(C(F)F)o4)cn3)nn2)cc1F [Compound 3737]	< 4.30
CC(C)N1CC(N2CCC(c3cccc(-c4cn(Cc5ccc(-c6nnc(C(F)F)o6)cc5F)nn4)c3)CC2)C1 [Compound 4296]	< 4.30
CN1CCc2cc(-c3cn(Cc4ccc(-c5nnc(C(F)F)o5)cn4)nn3)ccc2C1 [Compound 4051]	< 4.30
CC(=O)N1CCC(Nc2cccc(-c3cn(Cc4ccc(-c5nnc(C(F)F)o5)cc4F)nn3)c2F)CC1 [Compound 4433]	< 4.30
FC(F)c1nnc(-c2ccc(Cn3cc(-c4cnc5[nH]ccc5c4)nn3)nc2)o1 [Compound 3841]	< 4.30
